Values from ChEMBL document CHEMBL1132047

- METHOD_SUMMARY: Compound was evaluated in vivo in rat for the plasma half-life at a oral dose of 20 mg/kg experiment by using concentration vs time curve
- Format: ADME, organism-based
- Parameters: dose 20 mg/kg, route oral
ASSAY_METRIC: half-life (min)
Kindly answer with a numeric value in min, unit omitted.

Can you look up the measured half-life of "COc1cc(OC2CCN(C(C)=O)CC2)ccc1C(=O)N1CCC(N2C(=O)OCc3ccccc32)CC1" for me?
30

----------
- EXPERIMENTAL_SYSTEM: Oxytocin receptor (Homo sapiens)
- Sequence (P30559 whole entry): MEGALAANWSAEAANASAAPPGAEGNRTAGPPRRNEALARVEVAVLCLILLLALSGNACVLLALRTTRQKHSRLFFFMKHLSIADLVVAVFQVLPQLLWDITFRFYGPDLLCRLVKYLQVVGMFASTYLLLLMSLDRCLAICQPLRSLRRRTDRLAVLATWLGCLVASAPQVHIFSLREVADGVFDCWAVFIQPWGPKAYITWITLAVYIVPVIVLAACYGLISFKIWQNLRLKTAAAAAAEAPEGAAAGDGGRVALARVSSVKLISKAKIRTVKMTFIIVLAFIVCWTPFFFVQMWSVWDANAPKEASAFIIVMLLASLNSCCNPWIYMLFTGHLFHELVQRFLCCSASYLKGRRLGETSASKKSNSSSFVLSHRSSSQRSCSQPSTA
pKi: −log10 of the molar value.
Cut-off 8 on pKi, inclusive. At or above means y; below means n.

Below, 5 molecules whose answers are already recorded.
CC(=O)N1CCC(Oc2ccc(CC(=O)N3CCC(N4C(=O)OCc5ccccc54)CC3)c(OC(F)(F)F)c2)CC1 y
O=C(Cc1ccc(N2CCOCC2)cc1OCC(F)(F)F)N1CCC(N2C(=O)OCc3ccccc32)CC1 y
O=C(Cc1ccccc1OCC(F)(F)F)N1CCC(N2C(=O)OCc3ccccc32)CC1 y
COc1ccc(CC(=O)N2CCC(N3C(=O)OCc4ccccc43)CC2)c(OC)c1 n
COc1ccc(CCC(=O)N2CCC(N3C(=O)OCc4ccccc43)CC2)c(OC)c1 n

For this molecule, is measured pKi 8 or higher? "CC(=O)N1CCC(Oc2ccc(CC(=O)N3CCC(N4C(=O)OCc5ccccc54)CC3)cc2)CC1"
n

For this molecule, is measured pKi 8 or higher? "O=C(Cc1ccc(OC2CCN(CC3CC3)CC2)cc1OCC(F)(F)F)N1CCC(N2C(=O)OCc3ccccc32)CC1"
y

For this molecule, is measured pKi 8 or higher? "CC(=O)N1CCC(Oc2ccc(CC(=O)N3CCC(N4C(=O)OCc5ccccc54)CC3)c(OCC(F)(F)F)c2)CC1"
y

For this molecule, is measured pKi 8 or higher? "O=C(Cc1ccc(OCCN2CCOCC2)cc1OCC(F)(F)F)N1CCC(N2C(=O)OCc3ccccc32)CC1"
y
